Test system: cough response in male guinea-pigs
measurementDescription: Antitussive activity in male guinea-pigs (electrically stimulated cough)
Type: in vivo, guinea-pig
measurementConditions: Cavia porcellus, sc; 10 mg./kg. subcutaneously; cough tested at 30, 60 and 120 min; values of 30 or less not significantly different from saline controls, considered inactive or insufficiently active
Structures can show the parent of a compound that is named as a salt.
quantityName: inhibition in vivo at 10 mg/kg (%)
Please reply with the bare figure in % and do not write the unit itself.

Value lookup for inhibition in vivo at 10 mg/kg; key = Cl.Cl.Clc1ccc2c(c1)C(c1ccccc1)N(CCN1CCCCC1)CCO2 (centres unmarked) [BL-5409, dihydrochloride] 0

Value lookup for inhibition in vivo at 10 mg/kg; key = Cl.Cl.Clc1ccc2c(c1)C(c1ccccc1)N(CCN1CCOCC1)CCO2 (centres unmarked) [BL-5405, dihydrochloride] 30

Value lookup for inhibition in vivo at 10 mg/kg; key = CN1CCN(CCN2CCOc3ccc(Cl)cc3C2c2ccccc2)CC1.Cl.Cl.Cl (centres unmarked) [BL-5451, trihydrochloride] 0

Value lookup for inhibition in vivo at 10 mg/kg; key = CN(C)CCN1CCOc2ccc(Cl)cc2C1c1ccccc1.Cl.Cl (centres unmarked) [BL-R845, dihydrochloride] 48

Value lookup for inhibition in vivo at 10 mg/kg; key = CNCCN1CCOc2ccc(Cl)cc2C1c1ccccc1 (centres unmarked) [BL-5366, dihydrochloride] 0

Value lookup for inhibition in vivo at 10 mg/kg; key = CCN(CC)CCN1CCOc2ccc(Cl)cc2C1c1ccccc1.Cl.Cl (centres unmarked) [BL-5372, dihydrochloride] 0

Value lookup for inhibition in vivo at 10 mg/kg; key = Cl.Cl.Clc1ccc2c(c1)C(c1ccccc1)N(CCN1CCCC1)CCO2 (centres unmarked) [BL-5397, dihydrochloride] 0

Value lookup for inhibition in vivo at 10 mg/kg; key = CN1CCOC(c2ccccc2)c2ccccc2C1 (centres unmarked) [nefopam, reference compound] 0

Sourced from patent US4125538A
